Quantity Kind: melting point

Cc1cc(-c2cc(C(F)F)n3ncc(C(=O)Nc4nc(C)c(S(N)(=O)=O)s4)c3n2)ccc1C(F)(F)F : 307 °C
CS(=O)(=O)c1ccc(/C(=C2\CCN(CCC(=O)O)C2=O)c2ccc(Cl)cc2)cc1 : 178 to 179 °C

melting point measured on CCOC(=O)CNc1ccc(C2=NNC(=O)NC2C)cc1 (stereo not drawn) = 180 to 182 °C

melting point measured on O=[N+]([O-])C12C3C4C1C1(Cl)C2C3C41[N+](=O)[O-] (stereo not drawn) = 145 to 147 °C

###

// reported melting point for each item listed

Cc1c(OC(C)(C)C(=O)O)ccc(OCCCC#Cc2ccc(OC(F)(F)F)cc2)c1F : 116 to 118 °C
Cn1nnc(-c2cc3c(Oc4ccc(Cl)cc4)cncc3s2)n1 : 131 to 133 °C
Cc1cccc(-c2[nH]c(C(C)C)nc2-c2cccc(-c3cccs3)c2)n1 : 73 to 76 °C
COc1ccccc1C(=O)CN1CCC(=O)C(C(c2ccc(F)cc2)c2ccc(F)cc2)C1 (stereo not drawn) : 148 to 149 °C
Cc1ccc2c(c1)C=Cc1ncccc1C2c1c[nH]c(=O)[nH]c1=S (stereo not drawn) : > 250 °C

melting point measured on `COC(=O)c1cc(O)c(N=Nc2ccccc2)c(OC(C)=O)c1` = 162 °C

melting point measured on `Cc1c(SCCCCl)ccnc1CSc1ncccn1` = 83 to 85 °C

melting point measured on `CCN1C(=Cc2ccc([N+](=O)[O-])cc2C#N)C=Cc2ccccc21` = 183 to 184 °C

melting point measured on `CCOc1c(CC)ccnc1C(=O)c1[nH]c2cc(Cl)ccc2c1CC(=O)O` = 165 °C

melting point measured on `Cc1noc(-c2cccc(CN3CCN(c4ccc(NC(=O)c5cccc(C)c5-c5ccc(C(C)C)cc5)cc4)CC3)c2)n1` = 74 °C

melting point measured on CC1(C)OCC(C(O)CNC(=O)CS(=O)(=O)Nc2ccc(F)c(C(F)(F)F)c2)O1 (stereo not drawn) = 144 to 146 °C

melting point measured on `O=C(Cc1cc(F)cc(F)c1)NCC(=O)N[C@@H]1C(=O)Nc2ccccc2S[C@@H]1c1ccccc1` = 125 to 130 °C

melting point measured on `CCc1c(-c2ccc(CO)cc2)c2cc(C(C)=O)c3cccc1n32` = 73 to 77 °C

###

// reported melting point for each item listed

COc1cc(C=C2NC(=O)NC2=O)cc(OC)c1OC : 266 to 268 °C

melting point measured on `CCN(CC)C(=O)COc1nc(-c2ccccc2)cc2ccccc12` = 102 °C

melting point measured on `COc1ccc(Cl)cc1C(=O)NCCc1ccc(CCCCCCCCCC(=O)O)cc1` = 97 to 100 °C

melting point measured on `COc1cc(O)c(C(=O)C=Cc2ccc(SC)cc2)c(OC)c1` = 135 °C

melting point measured on CC(=O)N1N=C(c2ccc([N+](=O)[O-])cc2)c2cc(Cl)c(Cl)cc2CC1C (stereo not drawn) = 198 to 200 °C

melting point measured on `O=C(/C=C/c1ccccc1Cl)/C=C/c1ccccc1Cl` = 116 to 118 °C

melting point measured on `O=C(O)CCc1cc2nc(Cl)ccc2n1S(=O)(=O)c1ccc2c(c1)CCN2` = 79 °C

melting point measured on `CCCc1c(C(=O)C=C(C)C)c2ccc(C(N)=O)cc2n1Cc1cc2c(cc1Cl)OCO2` = 227 to 229 °C

melting point measured on `CSc1ccc2cccc(CCNC(=O)C3CC3)c2c1` = 96 to 98 °C

melting point measured on `CCCc1c(OCc2ccc(CSc3nnn[nH]3)cc2)ccc(C(C)=O)c1O` = 160 to 161 °C

melting point measured on `COCOc1cc(CO)ccc1OCc1nc(-c2ccco2)oc1C` = 92 to 93 °C

melting point measured on `O=c1nc(-c2cccc(CSc3ccccn3)n2)sc2ccccc12` = 151 to 152 °C

melting point measured on `C/C(=C\c1ccc(C2(C)OCCO2)cc1)c1ccc2c(c1)C(C)(C)CCC2(C)C` = 122 to 123 °C

###

// reported melting point for each item listed

COc1ccc(C(=O)c2ccc(OCc3nc(-c4ccccc4)oc3C)cc2)c(OC2(C(=O)O)CCC2)c1 : 199 to 201 °C
CCOCc1nc2c(N)nc(C)c(C)c2n1CC1(O)CCC1 : 190 to 191 °C
CN(C)CC(C)(C)Oc1cnc(Nc2cc(-c3cccc(-n4ncc5cc(C(C)(C)C)cc(F)c5c4=O)c3CO)nn(C)c2=O)cn1 : 235 to 240 °C
CC1(C)OCC(CCBr)CO1 : 18 °C
CC12CC(N3CCC(=O)CC3)C(O)CC1CCC1C2CCC2(C)C(O)C(N3CCCC3)CC12 (configuration not stated) : 136 to 138 °C

melting point measured on Nc1nc(OCCc2ccc(Cl)cc2)nc2c1ncn2C1OC(CO)C(O)C1O (configuration not stated) = 156 to 159 °C

melting point measured on `CCNCc1cnc2c(C)c(NC(=O)c3ccc(OC[C@@H]4CCCO4)cc3)ccc2c1` = 149 to 151 °C

melting point measured on CC1N=C(c2ccccc2Cl)c2c(ccc(NC(=O)NC3CCC(O)CC3)c2Br)N(C)C1=O (configuration not stated) = 226 to 227 °C

melting point measured on `CC1(C)CC(CNS(=O)(=O)c2ccc(Cl)cc2)(Cc2ccc(CC(=O)O)cc2)C1` = 140 to 142 °C

melting point measured on O=C1NC(Cc2ccccc2)C(C(=O)O)O1 (configuration not stated) = 172 to 174 °C

melting point measured on `Cc1ccc(N2CC(=O)N(c3ccc(S(N)(=O)=O)cc3Cl)C2)cc1` = 223 to 226 °C

melting point measured on `COc1ccc(CCNc2nc(O)c(NC(=O)c3ccco3)c(O)n2)cc1` = > 250 °C

melting point measured on Nc1ncnc2ncn([C@H]3C=C[C@@H](O)C3)c12 (racemic) = 195 to 197 °C

melting point measured on COc1ccccc1C1(CC(=O)O)C(=O)Nc2ccc(Cl)cc21 (configuration not stated) = 135 to 139 °C

melting point measured on `CCCCNC(=O)ON1C(C)(C)CC(OC(=O)c2cccc(C(=O)OC3CC(C)(C)N(OC(=O)NCCCC)C(C)(C)C3)c2)CC1(C)C` = 176 to 177 °C

melting point measured on `Cc1ccc2c3c(ccc2n1)OC[C@H](CN1CCN(c2ccc4ccccc4n2)C[C@@H]1C)O3` = 78 to 82 °C

melting point measured on `CCOC(=O)CSc1nc(Cl)cc(Nc2cccc(C)c2C)n1` = 88 to 93 °C

###

// reported melting point for each item listed

Completed entries (count: 10):
Cc1cc(CC(Cc2cc(C)c(O)c(C(C)(C)C)c2)(C(=O)OC2CC(C)(C)N(C)C(C)(C)C2)C(=O)OC2CC(C)(C)N(C)C(C)(C)C2)cc(C(C)(C)C)c1O : 150 °C
Cc1noc(NS(=O)(=O)c2cc(Cl)c(Cl)cc2Cl)c1Br : 179 to 182 °C
[N-]=[N+]=NCCc1c[nH]c(=O)[nH]c1=O : 230 to 235 °C
CCOC(=O)c1cn(-c2ccccn2)nc1C : 79 to 80 °C
CCOC(=O)c1cn(C)c2ccc(F)cc2c1=O : 193 to 195 °C
CCCN(CCC)C1CCC2=C(CCCC2=NO)C1 (stereo not drawn) : 99 to 102 °C
C=C(C)C(=O)NCCCNC(=O)CC(C)=O : 93 to 94 °C
COc1cc(C)c(C(O)c2c(Cl)cncc2C(F)(F)F)c(OC)c1OC (stereo not drawn) : 102 to 105 °C
Fc1ccc2[nH]cc(C3=CCN(CC4COc5ccc6ncncc6c5O4)CC3)c2c1 (stereo not drawn) : 233 to 235 °C
CCOC(=O)C1=C(COCc2cc(=O)n(C)c(N)n2)NC(C)=C(C(=O)OC)C1c1cccc(Cl)c1Cl (stereo not drawn) : 202 to 205 °C

melting point measured on `CN(C)CCNC1=CC(=O)c2oc(-c3cc(F)c(F)c(F)c3)nc2C1=O` = 200 to 201 °C

melting point measured on `CC(=O)c1c[nH]c2cc(O)ccc12` = 135 to 140 °C

melting point measured on `COc1nn(CC(C)=O)c(=O)s1` = 66 to 67 °C

###

Quantity Kind: melting point

O=c1c(Cc2cccnc2)nc2cccnc2n1-c1cccc(-c2ccc3ccccc3c2)c1 : 155 to 156 °C
C=CCn1c(=O)c(C(=O)O)c(NC(=O)CCl)c2cccnc21 : 145 to 148 °C
CSc1ccccc1C(=O)Nc1ccc(C(=O)N2Cc3ccccc3Cc3ccccc32)cc1 : 222 to 225 °C
O=C(SSCCSSC(=O)N1CCOCC1)N1CCOCC1 : 178 to 179 °C

melting point measured on `O=C(O)Cc1cccc(OCc2ccccc2Cl)c1OCc1ccccc1Cl` = 102 to 104 °C

melting point measured on O=C(O)c1cc2cc(Cl)ccc2nc1NC(Cc1ccc(Oc2ccc3ccccc3n2)cc1)C(=O)O (stereo not given) = 136 °C

melting point measured on Cc1nc(-c2ccc(-c3ccc(C(=O)Nc4ccc5c(c4)OC(CN(C)C)CO5)cc3)c(C)c2)no1 (stereo not given) = 92 to 94 °C

melting point measured on `OCc1cc(OCc2ccccc2)nn1C1CCCCC1` = 195 to 196 °C

melting point measured on `CCCc1nc2cccc(C(=S)OC)c2n1Cc1ccc(-c2ccccc2)c(-c2nc(=O)o[nH]2)c1` = 220 to 221 °C

melting point measured on `CCCOc1ccc(S(=O)(=O)N2CCN(C(C)=O)CC2)cc1-c1nc2cc(Cl)c([N+](=O)[O-])cc2c(=O)[nH]1` = 215 to 217 °C
